test system: CCRF-CEM leukemia; experiment: NCI tumour cell line growth inhibition, 48 h
*1 amine or outer side, *2 acyl side, *3 side chain or, on linkers, in order; H or OH if unused. Where a SMILES comes first, the peptide text is derived from it. Bridges are numbered along the chain shown (N, C = ends). Roman numbers before positions name the chains, in order. [ ]: non-standard residue; d: D form. Actinocin(1to9) = Cc1c2oc3c(C)ccc(C(=O)[*:2])c3nc-2c(C(=O)[*:1])c(N)c1=O; NMeV = CN[CH](C(=O)O)C(C)C; Sar = CNCC(=O)O
Give measured TGI for each item. Keep answers brief.
Answers are plain numbers, in µM.

Known results for molecules:
MOLECULE	TARGET_ENTITY	OUTPUT_UNIT	TGI
CC(=O)OC/C=C\Cn1ncc(=O)[nH]c1=O	CCRF-CEM leukemia	µM	50.4
Cc1cc2c(C(C)C)c(O)c(O)c(/C=N/O)c2c(O)c1-c1c(C)cc2c(C(C)C)c(O)c(O)c(/C=N/O)c2c1O	CCRF-CEM leukemia	µM	14.7
COc1ccc(CC2NC(=O)C(NC(=O)c3c4nc5c(C(=O)NC6C(=O)NC(Cc7ccc(OC)cc7)C(=O)N7CCCC7C(=O)N(C)CC(=O)N(C)C(C(C)C)C(=O)OC6C)ccc(C)c5oc-4c(C)c(=O)c3N)C(C)OC(=O)C(C(C)C)N(C)C(=O)CN(C)C(=O)C3CCCN3C2=O)cc1 (configuration not stated) (I: TY(Me)P[Sar][NMeV] / II: TY(Me)P[Sar][NMeV]; ester I:1-I:C, II:1-II:C; linker I:N-II:N via Actinocin(1to9); configuration not given here)	CCRF-CEM leukemia	µM	0.0418
COc1ccc(-c2cc(-c3ccc(Cl)cc3)nc(SCCCC(=O)NO)n2)cc1OC	CCRF-CEM leukemia	µM	33.4
COC1=CC(=O)C2=C(C1=O)[C@H]1CC[C@]3(C)C(=O)CC[C@H]3[C@@H]1CC2	CCRF-CEM leukemia	µM	26.9
CC(NC1=NCCO1)c1ccsc1 (configuration not stated)	CCRF-CEM leukemia	µM	46.5
Cc1cc(C)c([O-])c(-[n+]2c(-c3ccccc3)cc(-c3ccccc3)cc2-c2ccccc2)c1	CCRF-CEM leukemia	µM	10.1
CN1C(=O)[C@@H](CC2CCCC2)N(C2CCCC2)c2nc(Nc3cc(Cl)c(O)c(Cl)c3)ncc21	CCRF-CEM leukemia	µM	84.2

List TGI for every entry below, keeping the order given.
1. CCN(CC)CCC(=O)c1ccc(Cl)c(Cl)c1
2. NC(N)=N/N=C/c1c(-c2ccc([N+](=O)[O-])cc2)nc2sc(Cl)cn12
3. O=[N+]([O-])c1ccc(C2=NOC(c3ccccc3)N2C23CC4CC(CC(C4)C2)C3)cc1 (configuration not stated)
4. C=C1CC[C@@](C)(c2cc(Br)c(C)cc2OC(C)=O)[C@H]1C
5. COc1cc2c(SCCN(C)C)nc3ccccc3c2c2ccccc12
6. NNC(=O)N/N=C(/CC1(O)C(=O)Nc2ccc(Br)cc21)c1ccccc1 (configuration not stated)
7. C=C(Cl)[C@](Cl)(CBr)CC[C@@H](Br)C(C)(C)Cl

50.5
1.14
47.5
26.6
4.56
65.2
46.6

---

So I've got a bunch of compounds here, and I need their TGI values.
test system: ACHN renal; assay: NCI tumour cell line growth inhibition, 48 h
Answers are plain numbers, in µM.

COMPOUND	MEASURED_QUANTITY	OUTPUT_UNIT	RECORDED_NUMBER
C=C(CN(C)C)C(=O)c1ccccc1	TGI	µM	7.32

# map each compound to its TGI
1. Cc1ccc(N=NC(=O)NNc2ccc(C)cc2Br)c(Br)c1
2. COc1ccc(C(=O)C(c2ccc(OC)cc2)C2(O)C(=O)Nc3c(Cl)cc(Cl)cc32)cc1 (stereo unspecified)
3. Cc1cc(C(O)CCCc2ccccc2)cc(C)c1O (stereo unspecified)

1: 89.1; 2: 61.2; 3: 92.3

---

system: K-562 leukemia; experiment: NCI tumour cell line growth inhibition, 48 h; in the data active = GI50 below about 0.43 µM; inactive = the rest
Hi there, use one of these labels in your reply, thanks! Yes = active, No = inactive

Solved cases below.
COMPOUND	CATEGORY
CCN(CC)CCOc1ccc2c(-c3ccccc3)c(-c3ccc(OC)cc3)c(=O)oc2c1	No
COc1cc2c3c(n(CCCNCCCCN)c(=O)c2cc1OC)-c1cc2c(cc1C3=O)OCO2	No
O=C(O)C1CC[N-]CC1.O=C(O)C1CC[N-]CC1.[NH2-].[NH2-].[Pt+4]	No
C=C1CC[C@@](C)(c2cc(Br)c(C)cc2OC(C)=O)[C@H]1C	No
CC[C@]1(O)CC2CN(CCc3c([nH]c4ccccc34)C(C(=O)OC)(c3cc4c(cc3OC)N(C=O)[C@H]3[C@@](O)(C(=O)OC)[C@H](OC(C)=O)[C@]5(CC)[C@@H]6C[C@@H]6CN6CC[C@]43[C@@H]65)C2)C1 (some centres undefined)	Yes
COc1ccc(/C=C/C(=O)C(=O)/C=C/c2ccc(OC)c(OC)c2)cc1OC	No

Dear colleague, could you share the recorded outcome for Nc1ncc(-c2ccc3ncnc(N4CCc5cc(F)c(Cl)cc54)c3c2)cc1C=O when you have a moment? No

Hi, sorry to bother you, what did the test record for N=C1C(c2nc3ccccc3c(=O)[nH]2)=C(O)CN1c1cccc(Cl)c1 ? No

Please let me know the test result on file for Cc1ncnc2c1ccn2[C@@H]1C[C@H](Oc2cc(C(F)F)c(F)c3c2CNCC3)[C@@H](O)[C@H]1O . No

So what was the verdict on Cc1c(Br)c(Br)c2c3c1nc(N1CCNCC1)n3CCC2 in this test? No

Dear all, I need the recorded test outcome for COC(=O)COc1ccccc1/C=C1/N=C(c2ccccc2)N(c2c(C)n(C)n(-c3ccccc3)c2=O)C1=O , thank you. No

# outcome recorded in this test, key = Cc1cc2c3c(nc4ccccc42)C(=O)c2cccnc2-c3n1 Yes

Kindly provide the recorded test outcome for the following compound: C/C=C(/C)C(=O)OC1C=C(CO)C(=O)C(OC(=O)C2(C)OC2C)C1C(C)C (centres undefined) No

// return assay outcome for CN1C(=O)[C@@H](CC2CCCC2)N(C2CCCC2)c2nc(Nc3cc(Cl)c(O)c(Cl)c3)ncc21 No

---

system: XF 498 CNS; assay: NCI tumour cell line growth inhibition, 48 h
MEASURED_QUANTITY: TGI

// known answers, use as guide
CHEMICAL_STRUCTURE	TARGET_ENTITY	TGI
Nc1nc(N)c(N=Nc2ccccc2)c(=O)[nH]1	XF 498 CNS	> 100 µM
Cc1c(C(=O)/C=C/c2ccc([N+](=O)[O-])cc2)[n+](=O)c2ccccc2n1[O-]	XF 498 CNS	> 100 µM
Oc1ccc(I)c2cccnc12	XF 498 CNS	> 100 µM

// for each molecule in input: emit TGI
1. CCP(C)(=O)CC
2. O=C1NC(=S)NC(=O)C1=Cc1ccc([N+](=O)[O-])o1

1: > 100 µM; 2: 52.3 µM

---

system: BT-549 breast; assay: NCI tumour cell line growth inhibition, 48 h
Consider the following molecules; for each one, report its TGI.
One number for each entry, in µM.

MOLECULE	TARGET_ENTITY	OUTPUT_UNIT	TGI
Cc1cc(NS(=O)(=O)c2ccc(-c3cnc(C4CC4)o3)cc2)ccc1Cl	BT-549 breast	µM	16.6

Fill in TGI for each of the 3 molecules listed.
1. O=C(CNc1ccc([N+](=O)[O-])cc1)Nn1c(-c2ccccc2)nc2ccccc2c1=O
2. CCN(CC)CCOc1ccc2c(-c3ccccc3)c(-c3ccc(OC)cc3)c(=O)oc2c1
3. CCCCCCCCCCCCCCCC(=O)OCC1OC(OCCCC)[C@H](O[C@@H]2OC(C)C(OC(=O)CCC)C(O)C2O)C(O)C1O (stereo partly drawn)

1. 4.25
2. 19.4
3. 41.7

---

test system: M14 melanoma; assay: NCI tumour cell line growth inhibition, 48 h
MEASURED_QUANTITY: TGI (µM)
Answers are plain numbers, in µM.

Known TGI results, listed for orientation:
COMPOUND	MEASURED_QUANTITY	RECORDED_NUMBER
C=C1CC[C@@](C)(c2cc(Br)c(C)cc2OC(C)=O)[C@H]1C	TGI	30.6
Cc1ccc(/C=C(/C#N)n2nnc3cccc(F)c32)cc1	TGI	22.1
C[C@H]1[C@H]2[C@H](C[C@@]3(C)C4=CC[C@H]5C(C)(C)[C@@H](OC6OCC(O)C(O)C6O)CC[C@@]56C[C@@]46CC[C@]23C)O[C@@]2(O)[C@@H]1OC(C)(C)[C@H]2O (some centres undefined)	TGI	10.7
CN(C)C/C=C/C(=O)Nc1ccc(C(=O)Nc2cccc(Nc3ncc(Cl)c(-c4c[nH]c5ccccc45)n3)c2)cc1	TGI	0.173

# evaluate next
Answer with the recorded TGI for the compound listed here: CC(=O)OC1CCn2c1nc1c2C(=O)C=C(N2CC2)C1=O (centres undefined) 0.186
